Some compounds, each annotated with its measured viability change.
- EXPERIMENTAL PROTOCOL: Nrf2 qHTS screen for inhibitors: Validation (AID 493153)
- TEST PARAMETERS: A549 ARE-Fluc reporter, 18-24 h; measured here: cytotoxicity max response
Results filed as inconclusive are left out.
ASSAY ENDPOINT: viability change (%)

* C[C@H](Cc1ccccc1)Nc1ncnc2c1ncn2[C@@H]1O[C@H](CO)[C@@H](O)[C@H]1O | 6.66
* C1CCC(N=C(NC23CC4CC(CC(C4)C2)C3)N2CCOCC2)CC1 | 4.19
* N#C/C(=C\c1ccc(O)c(O)c1)C(=O)Nc1ccccc1 | -12
* S=C(Nc1ccccc1)Nc1nccs1 | -0.228
